Values were extracted from the supplement of paper PMC10065799.

Can you tell me phosphorylation enrichment for the items I'm about to list?
Biological target: MERTK (UniProt Q12866)
Sequence (Q12866 whole entry, looked up): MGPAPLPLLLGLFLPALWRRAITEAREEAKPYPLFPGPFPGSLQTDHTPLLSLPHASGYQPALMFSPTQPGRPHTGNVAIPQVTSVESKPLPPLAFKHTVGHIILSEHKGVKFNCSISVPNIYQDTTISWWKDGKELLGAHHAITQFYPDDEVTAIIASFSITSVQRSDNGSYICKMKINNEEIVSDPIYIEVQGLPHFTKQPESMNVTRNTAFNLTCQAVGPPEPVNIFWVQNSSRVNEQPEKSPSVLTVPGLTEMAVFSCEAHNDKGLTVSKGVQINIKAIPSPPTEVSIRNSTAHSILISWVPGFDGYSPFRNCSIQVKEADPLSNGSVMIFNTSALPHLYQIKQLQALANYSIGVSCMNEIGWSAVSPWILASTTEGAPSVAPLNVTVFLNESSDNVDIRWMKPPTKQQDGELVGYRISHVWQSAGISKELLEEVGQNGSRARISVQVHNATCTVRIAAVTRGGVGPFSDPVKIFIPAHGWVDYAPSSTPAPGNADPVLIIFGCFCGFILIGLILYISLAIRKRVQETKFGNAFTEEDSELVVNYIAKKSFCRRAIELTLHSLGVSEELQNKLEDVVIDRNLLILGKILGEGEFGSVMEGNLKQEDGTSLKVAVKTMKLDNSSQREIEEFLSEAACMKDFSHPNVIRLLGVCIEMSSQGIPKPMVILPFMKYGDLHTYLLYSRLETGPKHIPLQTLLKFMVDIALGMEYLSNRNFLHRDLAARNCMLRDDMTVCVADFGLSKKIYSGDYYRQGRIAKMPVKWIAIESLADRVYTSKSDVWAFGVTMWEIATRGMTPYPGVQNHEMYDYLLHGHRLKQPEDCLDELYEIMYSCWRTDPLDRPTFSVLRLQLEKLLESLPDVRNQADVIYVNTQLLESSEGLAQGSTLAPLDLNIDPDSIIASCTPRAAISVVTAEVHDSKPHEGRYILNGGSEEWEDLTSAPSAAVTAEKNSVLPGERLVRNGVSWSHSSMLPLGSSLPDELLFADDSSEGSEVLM
Experiment: phosphorylation enrichment, bacterial display (enrichment ratio); higher = better substrate or ligand; peptides without Tyr show the background;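 further: 11-residue human phosphosite peptides and single-mutation variants displayed on the E. coli surface, counted by deep sequencing, each peptide's frequency after selection divided by its frequency in the unselected input library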;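 further: frequency after pTyr selection over input frequency; kinase dosed for 20-30% of maximal phosphorylation in three min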
Respond numerically, and do not add a unit to the figure.

In: Recorded phosphorylation enrichment of GSSSSCGQHGS [HRNR_Y517_Y517C] , please.
Out: 0.294

In: Same again, this time with ARLEFYENEKK [IRS1_Y47_YF]
Out: 0.462

In: Try KDQPDYKYQPR [SOX9_Y172_H169Q] next.
Out: 0.415

In: Do the same for RFLRGYRQDAY [HLA-A_Y137] please
Out: 1.2

In: Here is the next sequence: RRIHCYRGHLW [VHL_Y112_S111C]
Out: 0.556

In: Try this sequence next: RLEKEYFDQHF [NPC1_Y394]
Out: 0.631

In: Proceed to PLYSKYWPNHI [GREB1L_Y1560_R1558S]
Out: 20.1

In: Same question, KVFRVYQGQQP [MUTYH_Y494] this time
Out: 0.344

====

Target: EPHB1 (UniProt P54762)
Sequence (P54762 whole entry, looked up): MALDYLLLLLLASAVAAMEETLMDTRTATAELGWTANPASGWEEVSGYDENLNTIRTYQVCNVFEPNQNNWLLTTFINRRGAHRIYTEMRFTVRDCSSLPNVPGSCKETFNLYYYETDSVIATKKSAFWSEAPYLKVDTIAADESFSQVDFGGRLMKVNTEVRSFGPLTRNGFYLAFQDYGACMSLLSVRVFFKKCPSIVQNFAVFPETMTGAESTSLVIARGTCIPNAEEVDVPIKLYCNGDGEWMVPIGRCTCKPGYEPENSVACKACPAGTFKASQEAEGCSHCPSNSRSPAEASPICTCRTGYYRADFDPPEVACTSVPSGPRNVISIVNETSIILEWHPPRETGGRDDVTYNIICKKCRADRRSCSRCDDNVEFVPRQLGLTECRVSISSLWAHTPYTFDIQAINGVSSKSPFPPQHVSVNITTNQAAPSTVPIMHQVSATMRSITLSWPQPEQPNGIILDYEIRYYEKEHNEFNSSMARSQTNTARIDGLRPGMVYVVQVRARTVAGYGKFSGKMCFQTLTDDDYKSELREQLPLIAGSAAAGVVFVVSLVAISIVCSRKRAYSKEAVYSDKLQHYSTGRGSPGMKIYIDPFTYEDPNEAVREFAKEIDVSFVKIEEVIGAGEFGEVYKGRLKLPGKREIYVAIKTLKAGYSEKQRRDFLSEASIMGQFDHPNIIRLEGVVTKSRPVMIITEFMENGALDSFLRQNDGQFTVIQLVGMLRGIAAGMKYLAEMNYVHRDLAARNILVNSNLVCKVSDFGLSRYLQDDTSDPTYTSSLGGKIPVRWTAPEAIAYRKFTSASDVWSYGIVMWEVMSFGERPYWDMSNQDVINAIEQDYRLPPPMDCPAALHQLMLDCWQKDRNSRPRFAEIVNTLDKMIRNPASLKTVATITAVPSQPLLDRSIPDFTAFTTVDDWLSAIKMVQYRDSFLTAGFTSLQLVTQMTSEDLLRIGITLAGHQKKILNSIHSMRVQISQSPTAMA
Assay: phosphorylation enrichment, bacterial display (enrichment ratio); higher = better substrate or ligand; peptides without Tyr show the background
// class assignment uses phosphorylation enrichment with these ranges: b0: < 0.5; b1: ≥ 0.5 and < 0.7; b2: ≥ 0.7

In: Into which bin does this sequence go? CSSGGYEPRGR [FUS_Y239_R234C]
Out: b0

In: How about this sequence: YFRDGHMPRQY [GSS_Y270_Y270H]
Out: b0

In: Next record, please: CEQELYSQLVF [WAS_Y102_W97C_YF]
Out: b2

In: Lookup MGGSVYFSFPD [HIKESHI_Y55_YF]
Out: b2

In: Now consider REIIAYQPYGK [PRKCG_Y529_P524R] .
Out: b0

In: Thanks! And VFGEEYEEQPR [ZMYM2_Y1033] ?
Out: b1

In: Record: PSPTKYSLSPS [RANBP2_Y785_R784K]
Out: b0

In: # repeat for DLDPNYVVSSR [CKM_Y125_L127V]
Out: b1

In: Here is the next sequence: FGPPQYNIQFS [ERBB2IP_Y977_YF]
Out: b1

In: Note, next up: CTTIHYFFMCN [TP53_Y234_N235Y_YF]
Out: b1

In: What do you get for SGIYQYNIAKF [FOXL2_Y83_I84N] ?
Out: b2

In: // query: PIYEGYGLPHA [ACTA1_Y171_A172G]
Out: b2

In: Same thing, different sequence: TVHCDYLNIPH [TAF1L_Y1385]
Out: b2

In: Record: INSLKYAYNIS [EIF2B5_Y583]
Out: b0

In: Follow-up entry: LVLIKYLPEWT [PSEN1_Y240_F237L]
Out: b2

In: Thanks! And MVTSGYKAKMI [EFR3A_Y447_T451M] ?
Out: b0

In: Note, next up: SGPRHYTIAAL [TTR_Y125_R124H]
Out: b1

In: Please answer likewise for RLAKTYETTLE [ALB_Y377]
Out: b1

In: Same thing, different sequence: QTEAEYRFIYM [PTPN11_Y511_Q510E]
Out: b2

In: Consider next the sequence GIYKDYYRYNF [PLA2G2D_Y85_S80G] in the same way.
Out: b2

In: Another sequence to look at: ENRKYYKDLKE [PURA_Y156_M157K]
Out: b0

In: Here is the next sequence: SREDIYKRNIE [PDE4DIP_Y45]
Out: b0

In: # repeat for FLAVGDHKPHI [IDS_Y225_Y225D]
Out: b0

In: Next entry: QGIIIYKAAFF [SLC25A4_Y187_R188K_YF]
Out: b2

In: Also FDEFRYRSVIK [CFTR_Y517_YF] ?
Out: b0

In: Next entry: RSDEDYLYREE [POR_Y573]
Out: b2

In: Next up: IEDPYYGNDFD [ACP1_Y133_S137F]
Out: b2

In: Also check FASTGYGIAIQ [GRIN2B_Y762]
Out: b1

In: How about this sequence: EWKNNYPRLRE [OPA1_Y582]
Out: b0

In: Further, for PSALGYSPSLR [LLGL2_Y40] ?
Out: b2

In: Try KKCTRYIDCDR [ASPA_Y64_L69R] next.
Out: b0

In: Entry VDTRAYLTSAT [MT-CO1_Y304_F305L] please
Out: b1

In: Likewise for FIGCIYLYLTK [GARS1_Y414_R412C] ?
Out: b1

In: Field entry: RRVEPYGENFN [APOA4_Y310]
Out: b1

In: Now the sequence QRALLYEDALY [UNC13D_Y56]
Out: b2

In: Same lookup for WIPIQCPIISE [NOG_Y222_Y222C] , please.
Out: b2

In: Field entry: KGSEGYLAAIF [NF1_Y2503_T2507I_YF]
Out: b1

In: Ok, now ADKSVYLMGLN [MYH7_Y386_A385V]
Out: b0

In: Field entry: RHFVFYFSFLL [PTEN_Y177_R173H_YF]
Out: b1

In: Entry to check: GFEEAYSVFKK [PAFAH1B1_Y28_YF]
Out: b0
